experiment: SDT Cancer Cell Toxicity qHTS against the NCATS CANVASS Library (AID 1347365); details: SDT dog glioma viability, ATP luminescence, 72 h; series mostly up to 46.1 µM; note: nearly all actives have a fitted effect of over 60% in size
Records with an inconclusive call do not appear. Calls of active or inactive are those of the source. Calls come from the whole dose curve; as a rule, active = well fitted cell-killing curve with a large enough effect; inconclusive = small, poorly fitted or top-dose-only effect; inactive = flat fitted curve, though single readings scatter.
Give one outcome, nothing more. List: active, inactive

Lookup: What classification did C=C1C(=O)O[C@H]2C[C@H](C)[C@@H]3CC(=O)C(C)=C3[C@H](O)[C@H]12 end up with in this test?
Found: active

Lookup: What classification did C/C(=C\[C@H](C)C(=O)CCCC1CC(=O)NC(=O)C1)[C@@H]1OC(=O)/C=C/CC/C=C/C[C@@H](O)[C@@H]1C end up with in this test?
Found: active

Lookup: What classification did C[C@@H]1O[C@@H](Oc2c(-c3ccc(O)cc3)oc3cc(O)cc(O)c3c2=O)[C@H](O)[C@H](O)[C@H]1O end up with in this test?
Found: inactive

Lookup: What classification did CN1CCc2cc3c(c4c2[C@H]1[C@@H](O)c1ccccc1-4)OCO3 end up with in this test?
Found: active

Lookup: What classification did C[C@@]12CCC[C@@](C)(C(=O)O)[C@H]1CC[C@]13C[C@H]4C[C@H](O[C@@]4(C)C1)[C@H]32 end up with in this test?
Found: inactive

Lookup: What classification did C[C@@]12C[C@@H](C[C@H]3C(=O)O[C@@H](c4ccoc4)[C@H](OC(=O)c4ccccc4)[C@@H]31)OC2=O end up with in this test?
Found: inactive

Lookup: What classification did CC[C@@H]1C[C@@]2(CC)OC(=O)[C@@]3(CC)OC(=O)[C@@H]1[C@@H]23 end up with in this test?
Found: inactive

Lookup: What classification did C=C1C[C@@]23C=CC(=O)[C@@](C)(CCC(=O)Nc4c(OC5O[C@H](CO)[C@@H](O)[C@H](O)[C@H]5O)ccc(C(=O)O)c4O)C2C[C@@H]1CC3 (stereo partly specified) end up with in this test?
Found: inactive

Lookup: What classification did CN1CC[C@]2(c3cccc4c3N[C@@H]3N(C)CC[C@]43[C@@]34CCN(C)[C@@H]3Nc3c([C@]56CCN(C)[C@H]5Nc5ccccc56)cccc34)c3ccccc3N[C@H]12 end up with in this test?
Found: active

Lookup: What classification did C=CC(C)(C)C(=O)[C@@H](C)[C@@H]1CC[C@](C)(C=C)O1 end up with in this test?
Found: inactive

Lookup: What classification did CC(=O)O[C@H]1CC[C@@]2(C)C(CC[C@]3(C)C2CC=C2C4CC(C)(C)CC[C@]4(C)CC[C@]23C)C1(C)C (stereo partly specified) end up with in this test?
Found: inactive

Lookup: What classification did C/C=C/C=C/C1(O)C2C=C3C(=O)CC45C(=O)C(O)=C(C)C(=O)C4C1C1(C(=O)C(O)=C(C)C(=O)C351)C2C (stereo unspecified) end up with in this test?
Found: inactive

Lookup: What classification did Oc1ccc(/C=C2/c3cc(O)cc(O)c3C(c3ccc(O)cc3)[C@H]2c2cc(O)cc(O)c2)cc1 (stereo partly specified) end up with in this test?
Found: inactive

Lookup: What classification did CCCCCCCCC[C@@H]1C[C@@H]2CC[C@H]3[C@@H](C(=O)OCCCCN=C(N)N)[C@@H](C)N=C(N1)N23 end up with in this test?
Found: active

Lookup: What classification did CC1C(=O)C23CCC1C[C@]21O[C@@H]2C(C)(C)C=CC(=O)[C@@]23COC1=O (stereo partly specified) end up with in this test?
Found: inactive

Lookup: What classification did CC1(C)[C@H](Br)CC[C@]23C[C@]4(C)C(=O)CC12C[C@H]34 end up with in this test?
Found: inactive
